The reported measurements were obtained from ChEMBL document CHEMBL1154095.

# ASSAY_REMARKS: Inhibition of Saccharomyces sp. alpha-glucosidase assessed as p-nitrophenol release
Here the recorded IC50 is given for each entry.

MOL | REPORTED_VALUE
COc1cccc(CCc2ccc(N3C(=O)c4ccccc4C3=O)cc2)c1 | > 100 µM
O=C1c2ccccc2C(=O)N1c1ccc(CCc2ccccc2)cc1 | > 100 µM
O=C1c2ccccc2C(=O)N1c1ccc(/C=C/c2ccc(O)c(O)c2)cc1 | > 100 µM
O=C1c2ccccc2C(=O)N1c1ccc(CCc2cccc(O)c2)cc1 | > 100 µM
O=C1c2c(Cl)c(Cl)c(Cl)c(Cl)c2C(=O)N1c1ccccc1CCc1ccccc1 | > 100 µM

# IC50 of COc1ccc(CCc2cccc(N3C(=O)c4ccccc4C3=O)c2)cc1OC = > 100 µM

IC50 for O=C1c2ccccc2C(=O)N1c1ccc(CCc2ccc(O)cc2)cc1 is > 100 µM

Summary for this compound, O=C1c2ccccc2C(=O)N1c1ccc(CCc2ccc(O)c(O)c2)cc1 : IC50 is > 100 µM

Sure, the documented IC50 for O=C1c2c(Cl)c(Cl)c(Cl)c(Cl)c2C(=O)N1c1ccc(CCc2ccc(O)c(O)c2)cc1 is > 100 µM

Notebook: O=C1c2c(Cl)c(Cl)c(Cl)c(Cl)c2C(=O)N1c1cccc(CCc2ccccc2)c1 , IC50 read as > 100 µM
